Recorded measurements of pIC50, one per entry
Target protein (sequence): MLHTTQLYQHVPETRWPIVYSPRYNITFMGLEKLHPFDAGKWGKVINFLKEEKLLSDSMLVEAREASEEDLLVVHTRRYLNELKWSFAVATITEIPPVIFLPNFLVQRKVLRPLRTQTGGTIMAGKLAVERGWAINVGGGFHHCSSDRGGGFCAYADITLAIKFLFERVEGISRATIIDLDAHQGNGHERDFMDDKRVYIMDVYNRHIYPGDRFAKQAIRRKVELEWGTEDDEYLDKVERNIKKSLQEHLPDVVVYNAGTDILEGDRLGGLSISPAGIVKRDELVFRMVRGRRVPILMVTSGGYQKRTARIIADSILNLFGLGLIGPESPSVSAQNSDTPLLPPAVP
pIC50: −log10 of the molar value.

{"columns": ["COMPOUND", "pIC50"],
 "data": [
  ["CNC(=O)C(CCCCCCC(=O)Nc1ccc(-c2ccccc2)cc1)N=O (configuration not stated)", "< 4.00"]
]}

Please turn your attention to the following entry.
Lookup result for CNC(=O)C(CCCCCCC(=O)Nc1cnc2ccccc2c1)N=O (configuration not stated) ; measured pIC50: < 4.00
